System: TK-10 renal
measurement.notes: NCI-60 one-dose screen, 48 h
test.context: 10 µM unless noted
About 83,000 compounds went through this panel and 20% of them were active in at least one assay; those are over-represented in the sample as a whole. Active and inactive are the calls of the source. Rule for the calls: active = growth percent below 10; inactive = the rest.
Return exactly one item of 1 (yes) = active, 0 (no) = inactive

*Q* Test call, this compound: "CCCCCCCC/C=C\CCCCCCCCOc1ccccc1CC(=O)NCC[N+]1(C)CCCCC1"
*A* 0 (no)

*Q* Item: "Cc1nc2sc(C(=O)Nc3ccccc3)c(N)c2cc1C(=O)/C=C/c1ccccc1"
*A* 1 (yes)

*Q* Item: "CN1CCN(c2ccc(NC(=O)c3cncnc3Nc3ccc4c(ccn4Cc4cccc(F)c4)c3)cc2)CC1"
*A* 0 (no)

*Q* Item: "COc1cc(-c2nc(NC(C)=O)sc2-c2ccnc(NCCNS(=O)(=O)c3ccccc3)n2)ccc1Cl"
*A* 0 (no)

*Q* Item: "c1ccc2cc(Cn3c[n+](Cc4ccc5ccccc5c4)c4ccccc43)ccc2c1"
*A* 1 (yes)

*Q* Item: "COc1cc(/C=C2\C(=O)N(c3c(Cl)cccc3Cl)c3ccccc32)cc(OC)c1OCCCCCCn1c2ccccc2c(=O)c2ccccc21"
*A* 0 (no)

*Q* Item: "CCCCSCC(=O)c1ccccc1"
*A* 0 (no)

*Q* Item: Cc1ccc2[nH]c(=O)c3c(c2c1)OC(N)=C(C#N)C31C(=O)c2cccc3cccc1c23 (stereo unspecified)
*A* 0 (no)

*Q* Item: "C=CC(=O)NCCOc1cccc(Nc2cc(NCCCNC(=O)C3CCC3)c(Br)cn2)c1"
*A* 1 (yes)

*Q* Item: "COc1ccc2nc(SCC(=O)Nc3ccccc3C)[nH]c2c1"
*A* 0 (no)

*Q* Item: "CN(CCC#N)c1ccc(/C=C2\NC(=O)NC2=O)cc1"
*A* 0 (no)

*Q* Item: "Clc1nccc2c(-c3csc(-c4c[nH]c5ccccc45)n3)c[nH]c12"
*A* 0 (no)

*Q* Item: O=C(O)C1CN(c2cccc(Cl)c2)N(c2cccc(Cl)c2)C1=O (stereo unspecified)
*A* 0 (no)

*Q* Item: "Nc1c(C(=O)O)cc(Cl)cc1[N+](=O)[O-]"
*A* 0 (no)

*Q* Item: "N=C(N)c1ccc(-c2ccc(-c3ccc(Cl)cc3Cl)s2)cc1F"
*A* 0 (no)

*Q* Item: "Brc1ccc(-c2cnc3nonc3n2)cc1"
*A* 0 (no)

*Q* Item: CC1(C)O[C@H]2OC3CCC(=O)CC3(O)[C@H]2O1 (stereo partly specified)
*A* 0 (no)

*Q* Item: "O=C1c2cc3c(cc2-c2c1c1ccc(Cl)cc1c(=O)n2C[C@H](O)CO)OCO3"
*A* 0 (no)

*Q* Item: "CCCCCCCCn1ccc2cc(NC(=O)Cn3cc(CN4CCN(CC)CC4)nn3)ccc21"
*A* 0 (no)

*Q* Item: "COC(=O)/C=C1/SC(=Nc2cccc(Cl)c2)N(CCc2c[nH]c3ccc(O)cc23)C1=O"
*A* 0 (no)

*Q* Item: "O=C1NC(=O)c2c1c1c3ccccc3[nH]c1c1oc3cc(Br)ccc3c21"
*A* 0 (no)

*Q* Item: CC1COCC(C)N1C1=C(Cl)C(=O)c2ccccc2C1=O (stereo unspecified)
*A* 0 (no)

*Q* Item: COC(c1ccc2ccccc2c1)C(C)C(F)F (stereo unspecified)
*A* 0 (no)

*Q* Item: "O=C(Cn1cc(CN2C(=O)c3ccccc3S2(=O)=O)nn1)Nc1cccc(Cl)c1"
*A* 0 (no)

*Q* Item: "COc1cc2c(/C=C3\C(=O)Nc4ccccc43)c(C(=O)O)[nH]c2cc1C"
*A* 0 (no)

*Q* Item: "CCCCCCC(=O)Nc1ncc(Cc2ccc(C)cc2)s1"
*A* 0 (no)

*Q* Item: "Cn1cc(-c2nonc2-c2c[nH]c3ccccc23)c2ccccc21"
*A* 0 (no)

*Q* Item: "C(/C=C/c1ccccc1)=Nc1ccc(CCc2ccc(N=C/C=C/c3ccccc3)cc2)cc1"
*A* 0 (no)

*Q* Item: C=C(C)[C@@H]1CC[C@]2(CO)CC[C@]3(C)[C@H](CC[C@@H]4[C@@]5(C)CCC(NCCc6ccc(O)cc6)C(C)(C)[C@@H]5CC[C@]43C)[C@@H]12 (stereo partly specified)
*A* 1 (yes)

*Q* Item: CC(=O)N/C(=C1/OC(C(O)C(O)C(O)CO)CN1C)[P+](c1ccccc1)(c1ccccc1)c1ccccc1 (stereo unspecified)
*A* 0 (no)

*Q* Item: "COc1ccc2cc(-c3cnc4nonc4n3)ccc2c1"
*A* 0 (no)

*Q* Item: "Cc1c2cnccc2c(C)c2c1c1cc(C3OCCCO3)ccc1n2C"
*A* 1 (yes)

*Q* Item: CCN(CCO)CC(C)Nc1ccc([N+](=O)[O-])c2sc3ccccc3c(=O)c12 (stereo unspecified)
*A* 0 (no)

*Q* Item: "CNC(=O)c1c(NC(=O)c2ccc(C(C)(C)C)cc2)sc2c(CN(C)C)c(O)ccc12"
*A* 0 (no)

*Q* Item: "COc1ccc(-c2nnc(SCC(=O)Nc3ccc(/C(C)=N\O)cc3)n2-c2ccccc2)cc1OC"
*A* 0 (no)

*Q* Item: "CC[C@H](CC[C@@H](C)[C@H]1CC[C@H]2[C@@H]3CC[C@@H]4CC(=O)/C(=C\c5ccncc5)C[C@]4(C)[C@H]3CC[C@]12C)C(C)C"
*A* 0 (no)
